Where do the numbers come from? From ChEMBL document CHEMBL1201862.

System: DMS-273
measurement protocol: NCI tumour cell line growth inhibition, 48 h
Calls of active or inactive are those of the source. Rule as the data show it: active = GI50 up to about 1.1 µM and inactive = higher.
Exercise: state measured GI50 for each of the compounds provided.

// query GI50 value for entry CCOC(=O)C1(C#N)C(c2ccccc2)CC(O)(c2ccc(OC)cc2)C(C(=O)c2ccc(OC)cc2)C1c1ccccc1 (stereo unspecified)
> 100 µM (inactive)

// query GI50 value for entry C=CCNC(=O)N(CCC)CCCC(NC(C)=O)C(=O)NCc1ccccc1 (stereo unspecified)
> 100 µM (inactive)

// query GI50 value for entry CCOC(=O)CC(C)C1(C(=O)OCC)CCCCC1=O (stereo unspecified)
15 µM (inactive)

// query GI50 value for entry N=C1NC(=O)N2CC12 (stereo unspecified) [IMEXON]
> 100 µM (inactive)

// query GI50 value for entry Cn1ncc2ccc3[nH]c4ccccc4c(=O)c3c21
28.6 µM (inactive)

// query GI50 value for entry Nc1ccc(S(=O)(=O)Nc2cnc3ccccc3n2)cc1
> 100 µM (inactive)

###

Exercise: state measured GI50 for each of the compounds provided.
System: SW-620
measurement protocol: NCI tumour cell line growth inhibition, 48 h
Activity calls are given as the source filed them. Rule as the data show it: active = GI50 up to about 1.1 µM and inactive = higher.

// query GI50 value for entry CCCCC1Nc2ccccc2-c2ccnc(Cl)c21 (centres undefined)
21.2 µM (inactive)

// query GI50 value for entry O=C1NC(=O)C2C(=O)NC(=O)C1C2c1c(Cl)cccc1Cl (centres undefined)
> 31.3 µM (inactive)

// query GI50 value for entry Cn1c2ccccc2c(=O)c2c(O)cc3c(c21)C=CC1(CCCCC1)O3
> 10 µM (inactive)

// query GI50 value for entry N#Cc1nsnc1-c1nc(-c2nsnc2C#N)nc(-c2nsnc2C#N)n1
> 100 µM (inactive)

// query GI50 value for entry O=C(O)CSCCc1ccccc1
> 100 µM (inactive)

// query GI50 value for entry Brc1cc(CCOC2CCCCO2)c(-c2sccc2CCOC2CCCCO2)s1 (centres undefined)
> 65.8 µM (inactive)

// query GI50 value for entry O=C(CBr)NCCc1c[nH]c2ccccc12
2.03 µM (inactive)

// query GI50 value for entry Nc1ccc(S(=O)(=O)Nc2cnc3ccccc3n2)cc1 [SULFAQUINOXALINE]
> 100 µM (inactive)

// query GI50 value for entry COc1ccc(-c2cs/c(=N\c3ccccc3)n2CCCN(C)C)cc1
> 10 µM (inactive)

// query GI50 value for entry COc1ccc(/C=N\N2CC(=O)N3C4C=CC(CC4)N3C2=O)cc1 (centres undefined)
> 100 µM (inactive)

// query GI50 value for entry O=c1cc(O)c1=O
> 100 µM (inactive)

// query GI50 value for entry CCOC(=O)c1[nH]c(Br)c(-c2ccc(Br)cc2)c1Br
0.555 µM (active)

// query GI50 value for entry CCOC(=O)CCC1(C(=O)OCC)CCCCC1=O (centres undefined)
> 100 µM (inactive)

// query GI50 value for entry CCCNC1=Nc2ccccc2NC(C)C1 (centres undefined)
> 100 µM (inactive)

// query GI50 value for entry CC1(C)CCCCCCC2OC2CCCCCC(C)(C)C1=O (centres undefined)
52.4 µM (inactive)

// query GI50 value for entry O=C1C(Cl)C2(CC(/C=C/c3cccs3)=NN2c2cccc(S(=O)(=O)O)c2)N1c1nc2ccccc2s1 (centres undefined)
> 100 µM (inactive)

// query GI50 value for entry CCOC(=O)N1CCNCCN(C(=O)OCC)CCNCC1
> 100 µM (inactive)

// query GI50 value for entry C/C(CCn1[nH]c(=O)ccc1=O)=N\NC(=O)C(N)=O
> 100 µM (inactive)

// query GI50 value for entry Oc1ccnc(SCc2ccc(Cl)cc2)n1
> 100 µM (inactive)

// query GI50 value for entry CCOc1ccccc1/N=C\c1c2ccccc2cc2ccccc12
24.5 µM (inactive)

// query GI50 value for entry O=C1c2c(c3c4ccccc4n(CC4CO4)c3c3[nH]c4ccccc4c23)C(=O)N1Cc1ccccc1 (centres undefined)
77.6 µM (inactive)

// query GI50 value for entry Cc1nn(C(=O)c2ccncc2)c2c1C(c1cccc([N+](=O)[O-])c1)SC(=N)N2 (centres undefined)
> 10 µM (inactive)

// query GI50 value for entry CCN(CC)CC(=O)O[C@]1(CC)C(=O)OCc2c1cc1n(c2=O)Cc2cc3ccccc3nc2-1
0.0946 µM (active)

// query GI50 value for entry O=C(c1ccsc1)c1cc2c(s1)C(=O)c1ccsc1C2=O
0.17 µM (active)

###

System: SF-539
measurement protocol: NCI tumour cell line growth inhibition, 48 h
Active and inactive are the calls of the source. Rule as the data show it: active = GI50 up to about 1.1 µM and inactive = higher.
Hi there, use one of these labels in your reply, thanks! 1 (yes) = active, 0 (no) = inactive

Could you check what this test reported for CCc1ncc(C(C)(O)c2ccccc2)n1Cc1ccccc1 (stereo unspecified) ?
0 (no)

Could you check what this test reported for Oc1ccnc(SCc2ccc(Cl)cc2)n1 ?
0 (no)

Could you check what this test reported for CCCCNC(=S)Nc1nc(C(=O)NNC(=S)NCc2ccccc2)cs1 ?
0 (no)

Could you check what this test reported for Brc1cc(CCOC2CCCCO2)c(-c2sccc2CCOC2CCCCO2)s1 (stereo unspecified) ?
0 (no)

Could you check what this test reported for Nc1nc2c(ncn2CC(CO)CC(c2ccccc2)P(=O)(O)O)c(=O)[nH]1 (stereo unspecified) ?
0 (no)

Could you check what this test reported for O=c1oc2ccccc2c(-c2ccc(O)cc2)c1Oc1ccccc1 ?
0 (no)

Could you check what this test reported for CC1(/C=C/CCSc2ccccc2)CC(=O)C2CC1C2(C)C (stereo unspecified) ?
0 (no)

Could you check what this test reported for NC1=C(O)c2cccc3cccc(c23)C1=O ?
0 (no)

Could you check what this test reported for COc1cc2nc(Cl)nc(NS(=O)(=O)c3cc4ccccc4s3)c2cc1OC ?
0 (no)

Could you check what this test reported for COc1ccc(/C(C)=N/NC(N)=S)c(OC)c1 ?
0 (no)

Could you check what this test reported for COc1cc([C@@H]2c3cc4c(cc3[C@@H](NC(=O)c3ccc(OC(C)=O)cc3)C3COC(=O)[C@@H]32)OCO4)cc(OC)c1O (stereo partly specified) ?
1 (yes)

###

Tested on: OVCAR-5
measurement protocol: NCI tumour cell line growth inhibition, 48 h
Active and inactive are the calls of the source. No stated cut-off is given here; in the data, active = GI50 up to about 1.1 µM and inactive = higher.
value type: GI50

// query GI50 value for entry C#CCN(Cc1ccc2nc(-c3ccccc3)c(Cl)nc2c1)c1ccc(F)cc1
> 100 µM (inactive)

// query GI50 value for entry Cc1c(CN2CCOCC2)c(CN2CCOCC2)c(C)n1-c1ccc(Cl)cn1
> 100 µM (inactive)

// query GI50 value for entry C=C(CCC/C(C)=C/C=C/[C@@H](C)CCCc1ccoc1)C[C@@H]1OC(=O)[C@H](C)[C@@H]1O
18.4 µM (inactive)

// query GI50 value for entry O=C(O)CN1CCNCCN(CP(=O)(O)O)CC1
6.52 µM (inactive)

// query GI50 value for entry COc1cccc(C2c3cc4c(cc3OC(N3CCOCC3)C2C)OCO4)c1 (configuration not stated)
27 µM (inactive)

// query GI50 value for entry CCC12CC[C@H](C#N)N3CCc4c(n(c5ccccc45)C(=O)C1)C32 (some centres not stated)
21.5 µM (inactive)

// query GI50 value for entry Nc1ccc(SC23CC4CC(CC(C4)C2)C3)cc1
> 100 µM (inactive)

// query GI50 value for entry CC(O)(P(=O)(O)O)P(=O)(O)OCC(O)CN1CCOCC1 (configuration not stated)
> 100 µM (inactive)

// query GI50 value for entry O=C(O)C1C2CC3CC2CC31 (configuration not stated)
> 100 µM (inactive)

// query GI50 value for entry CCOC(=O)CCC(NC(=O)OCc1ccccc1)C(=O)NNC(=O)OC(C)(C)C (configuration not stated)
> 100 µM (inactive)

// query GI50 value for entry O=C(NNCc1ccccc1O)c1ccccc1O
3.59 µM (inactive)

// query GI50 value for entry CSC1=Nc2ccccc2-c2nc(-c3ccccc3)cc(-c3ccccc3)c2C1
33 µM (inactive)

// query GI50 value for entry O=C(O)CNC(=O)C1NC(C(F)(F)F)(C(F)(F)F)OC1(C(F)(F)F)C(F)(F)F (configuration not stated)
> 100 µM (inactive)

// query GI50 value for entry COc1ccc(/C(C)=N/NC(N)=S)c(OC)c1
> 100 µM (inactive)

// query GI50 value for entry NC(=O)OCC(COc1ccc(Cl)cc1)OC(=O)c1cc([N+](=O)[O-])cc([N+](=O)[O-])c1 (configuration not stated)
> 100 µM (inactive)

// query GI50 value for entry CCOC(=O)c1cn(Cc2ccccc2)c(=O)n1Cc1ccccc1
> 100 µM (inactive)

// query GI50 value for entry COC1(OC)CC2C(=O)N(Cc3ccccc3)C1C(S(=O)(=O)c1ccccc1)C2S(=O)(=O)c1ccccc1 (configuration not stated)
19.9 µM (inactive)

// query GI50 value for entry O=C1O[C@H](c2ccccc2)[C@@H]2CC3(CCN12)OCCO3
> 100 µM (inactive)

// query GI50 value for entry O=C1C2C=CC(n3[nH]c(=O)n(Cc4ccccc4)c3=O)CC2C(=O)N1c1cccc(Cl)c1 (configuration not stated)
> 100 µM (inactive)

// query GI50 value for entry CCSc1nc(=S)n(-c2ccccc2)c(C)c1C(C)=O
> 100 µM (inactive)

// query GI50 value for entry COc1cc(CC(C)=O)cc(OC)c1
> 100 µM (inactive)

// query GI50 value for entry O=[N+]([O-])C(=C1Nc2ccccc2N1)C(Cl)=C(Cl)Cl
> 100 µM (inactive)

// query GI50 value for entry Cc1ccc(C(=O)N/N=C(\N=N\c2ccccc2Cl)c2ccc(N(C)C)cc2)cc1
68.4 µM (inactive)

// query GI50 value for entry COc1cc(S(=O)(=O)Nc2nc(-c3ccc(N4C(=O)/C(=C/c5ccccc5[N+](=O)[O-])N=C4c4ccccc4)cc3)cs2)ccc1Cl
> 100 µM (inactive)

// query GI50 value for entry CCOC(=O)N1CCNCCN(C(=O)OCC)CCNCC1
> 100 µM (inactive)

// query GI50 value for entry C[C@]12CCC(N3CCCC3)CC1=CC[C@@H]1[C@@H]2CC[C@]2(C)C(O)[C@H](n3ccnc3)C[C@@H]12 (some centres not stated)
53.8 µM (inactive)

// query GI50 value for entry N#CC1CC2(C1)OCCS2 (configuration not stated)
> 100 µM (inactive)

// query GI50 value for entry O=C(CBr)NCCc1c[nH]c2ccccc12
1.87 µM (inactive)

// query GI50 value for entry COc1cc2cc3c4cc(OC)c(OC)cc4cc[n+]3c(C)c2cc1OC.O=C([O-])CS(=O)(=O)O
> 100 µM (inactive)

// query GI50 value for entry Nn1c(CCCCCCCCc2nnc(-c3c(O)ccc4ccccc34)n2N)nnc1-c1c(O)ccc2ccccc12
> 100 µM (inactive)

// query GI50 value for entry COc1cc(C(C)c2cc3c(cc2OCCOCCOc2cc4c(cc2C(C)c2cc(OC)c(OC)c(OC)c2)OCO4)OCO3)cc(OC)c1OC (configuration not stated)
> 10 µM (inactive)

// query GI50 value for entry CC(C)(O)[C@@H]1CC[C@@]2(C)CCCC(O)C2(O)C1 (some centres not stated)
> 100 µM (inactive)

// query GI50 value for entry O=C1OC(=O)C23CSCC12C1C=CC3O1 (configuration not stated)
> 100 µM (inactive)

// query GI50 value for entry COc1cccc(/C(CC(O)(C(F)(F)F)C(F)(F)F)=N\N(C)C)c1
> 100 µM (inactive)

// query GI50 value for entry Oc1cc(Br)cc2cccnc12
5.12 µM (inactive)

// query GI50 value for entry COc1ccc(C2CC(c3ccccc3)=Nc3c(-c4ccccc4)nnn32)cc1 (configuration not stated)
> 100 µM (inactive)

// query GI50 value for entry CC1(C)CC[C@]2(C(=O)O)CC[C@]3(C)C(=CC[C@@H]4[C@@]5(C)CC[C@H](OC6OC(C(=O)O)C(O)C(O)C6O)C(C)(C)[C@@H]5CC[C@]43C)[C@@H]2C1 (some centres not stated)
16.2 µM (inactive)

// query GI50 value for entry CCOC(=O)c1cn(CC)c2ccc3c(c2c1=O)S(=O)(=O)C=C3
> 100 µM (inactive)

// query GI50 value for entry NC1=C(O)c2cccc3cccc(c23)C1=O
> 100 µM (inactive)

// query GI50 value for entry Cn1/c(=N\c2ccc(Cl)cc2)sc2ccccc21
34.8 µM (inactive)

// query GI50 value for entry OC1(c2ccc(Cl)cc2)c2ccc3ccccc3c2C2=N[C@H]3CCCC[C@@H]3N21 (some centres not stated)
3.76 µM (inactive)

// query GI50 value for entry Cc1c(Cl)cccc1N1C(=O)C(Cl)=C(Cl)C1=O
> 100 µM (inactive)
